Target: Recombinant human glycogen synthase kinase 3 beta (Homo sapiens, UniProt P49841)
Sequence (P49841 whole entry): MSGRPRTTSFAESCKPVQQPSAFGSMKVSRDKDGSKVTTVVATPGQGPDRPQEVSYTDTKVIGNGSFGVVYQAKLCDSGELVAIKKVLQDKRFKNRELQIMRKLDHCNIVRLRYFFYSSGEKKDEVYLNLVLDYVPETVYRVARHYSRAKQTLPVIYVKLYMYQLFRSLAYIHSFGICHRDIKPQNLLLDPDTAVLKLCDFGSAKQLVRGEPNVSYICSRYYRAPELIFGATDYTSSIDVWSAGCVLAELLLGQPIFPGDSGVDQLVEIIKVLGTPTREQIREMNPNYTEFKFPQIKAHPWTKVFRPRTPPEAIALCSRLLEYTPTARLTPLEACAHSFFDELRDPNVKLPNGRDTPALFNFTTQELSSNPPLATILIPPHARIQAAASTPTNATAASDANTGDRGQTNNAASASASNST
Experiment: GSK-3 beta inhibition assay (33P-ATP, GS-2 peptide)
Assay type: biochemical
Conditions: 0.5 h; compound at 25 μM; percentage of the enzyme activity (remaining); read-out: % Act. GSK-3 beta
Protocol: The GSK-3 beta activity of the compounds of formula (I) according to the present invention was determined by incubation of a mixture of recombinant human GSK-3 enzyme, a phosphate source and GSK-3 substrate in the presence and in the absence of the corresponding test compound, and by measuring the GSK-3 activity of this mixture. The compounds where tested at final concentrations of 25 and 50 μM. […]
Below: a set of entries, each annotated with reported remaining activity at 25 µM.

compound: CC(C)=CCC/C(C)=C/CC/C(C)=C/Cc1cc(C=O)ccc1OCc1ccccc1
remaining activity at 25 µM / %: 2.22
//
compound: CC(C)=CCC/C(C)=C/CC/C(C)=C/CC/C(C)=C/Cc1cc(C(=O)OCc2ccccc2)ccc1O
remaining activity at 25 µM / %: 49.7
//
compound: CC(C)=CCC/C(C)=C/Cc1cc(C(=O)O)ccc1OCc1ccccc1
remaining activity at 25 µM / %: 85.1
//
compound: COCOc1ccc(C=O)cc1C/C=C(\C)CC/C=C(\C)CCC=C(C)C
remaining activity at 25 µM / %: 61.3
//
compound: CC(C)=CCC/C(C)=C/CC/C(C)=C/CC/C(C)=C/CC/C(C)=C/Cc1cc(O)ccc1O
remaining activity at 25 µM / %: 17.8
//
compound: CC(C)=CCC/C(C)=C/CC/C(C)=C/CC/C(C)=C/Cc1cc(C=O)ccc1O
remaining activity at 25 µM / %: 52
//
compound: CC(C)=CCC/C(C)=C/Cc1cc(C=O)ccc1O
remaining activity at 25 µM / %: 12.1
//
compound: CC(C)=CCC/C(C)=C/CC/C(C)=C/Cc1cc(C(=O)O)ccc1OCc1ccccc1
remaining activity at 25 µM / %: 71.4
//
compound: CC(C)=CCC/C(C)=C/Cc1cc(C(=O)O)ccc1O
remaining activity at 25 µM / %: 75.7
